Values from ChEMBL document CHEMBL1148736

TARGET_OR_SYSTEM: Oxysterols receptor LXR-beta (Homo sapiens)
PROTOCOL: Agonist activity at GAL-linked human LXRbeta expressed in THP1 cells assessed as stimulation of co-activator recruitment by FRET assay relative to GW-3965
Format: functional
The label Criterion met is reserved for Efficacy strictly under 90%; Criterion not met covers values equal to or above it.

>>> class("COc1cccc(C2SC(c3ccc(Cl)cc3)=NN2C(=O)c2c(F)cc(F)cc2F)c1OC (racemic)")
"Criterion not met"
>>> class("COc1ccccc1C1SC(c2ccc(Cl)cc2)=NN1C(=O)c1c(F)cc(F)cc1F (centres undefined)")
"Criterion not met"
>>> class("COc1cccc(C2SC(c3ccc(F)cc3)=NN2C(=O)c2cc(F)c(F)c(OC)c2F)c1OC (centres undefined)")
"Criterion not met"
>>> class("COc1cccc(C2SC(c3ccc(F)cc3)=NN2C(=O)c2cccc(Cl)c2)c1OC (centres undefined)")
"Criterion met"
>>> class("COc1cccc([C@H]2SC(c3ccc(Cl)cc3)=NN2C(=O)c2c(F)cc(F)cc2F)c1OC")
"Criterion not met"
>>> class("COc1cccc(C2SC(c3ccc(Cl)cc3)=NN2C(=O)c2ccccc2F)c1OC (centres undefined)")
"Criterion met"
>>> class("O=C(O)Cc1cccc(OCCCN(Cc2cccc(C(F)(F)F)c2Cl)CC(c2ccccc2)c2ccccc2)c1")
"Criterion not met"
>>> class("O=C(c1c(F)cc(F)cc1F)N1N=C(c2ccc(Cl)cc2)SC1c1ccccc1OC(F)(F)F (centres undefined)")
"Criterion met"
>>> class("COc1cccc(C2SC(c3ccc(F)cc3)=NN2C(=O)c2cc(F)c(F)cc2F)c1OC (centres undefined)")
"Criterion met"
>>> class("COc1cccc(C2SC(c3ccc(Cl)c(Cl)c3)=NN2C(=O)c2c(F)cc(F)cc2F)c1OC (centres undefined)")
"Criterion met"
>>> class("COc1cccc(C2SC(c3ccc(F)cc3)=NN2C(=O)c2c(F)ccc(F)c2F)c1OC (centres undefined)")
"Criterion met"

* * *

# Efficacy annotations
TARGET_OR_SYSTEM: Oxysterols receptor LXR-beta (Homo sapiens)
PROTOCOL: Agonist activity at GAL-linked human LXRbeta expressed in THP1 cells assessed as stimulation of co-activator recruitment by FRET assay relative to GW-3965
Type: functional
READOUT_TYPE: Efficacy (%)

>>> readout_number("COc1cccc(C2SC(c3ccc(F)cc3)=NN2C(=O)c2c(F)cc(Br)cc2F)c1OC (stereo not drawn)")
92
>>> readout_number("COc1cccc(C2SC(c3ccc(F)cc3)=NN2C(=O)c2cc(F)ccc2C)c1OC (stereo not drawn)")
90
>>> readout_number("O=C(c1c(F)cc(F)cc1F)N1N=C(c2ccc(F)cc2)SC1c1ccccc1OC(F)F (stereo not drawn)")
90
